# Tested on: Enterococcus sp.
# assay-protocol: in vitro antibacterial evaluation, MIC by broth dilution
# Type: cell-based
# conditions-used: Enterococcus faecalis (ATCC 29212); broth dilution, 18 hours at 35° C.
# Text: Methods for in vitro Antibacterial Evaluation (Table 1) […]
For each of the compounds below, state its MIC Enterococcus faecalis (ATCC 29212).

Record MIC Enterococcus faecalis (ATCC 29212) for all entries; do not skip any.
1. CC(c1ccccc1)C1NC(=O)CNC(=O)C(CO)NC(=O)C(C(O)C2CN(Cc3ccccc3)C(=N)N2C2OC(CO)C(O)C(O)C2O)NC(=O)C(C(O)C2CNC(=N)N2)NC(=O)C(Cc2ccc(OC3OC(CO)C(OC4OC(CO)C(O)C(O)C4O)C(O)C3O)cc2)NC1=O (stereo not drawn)
2. COc1cccc(C2OC3C(OC4C(CO)OC(Oc5ccc(CC6NC(=O)C(C(C)c7ccccc7)NC(=O)CNC(=O)C(CO)NC(=O)C(C(O)C7CNC(=N)N7C7OC(CO)C(O)C(O)C7O)NC(=O)C(C(O)C7CNC(=N)N7)NC6=O)cc5)C(O)C4O)OC(CO)C(O)C3O2)c1 (single isomer, unassigned) [Example 137a]
3. CC(c1ccccc1)C1NC(=O)CNC(=O)C(CO)NC(=O)C(C(O)C2CNC(=N)N2C2OC(CO)C(O)C(O)C2O)NC(=O)C(C(O)C2CNC(=N)N2)NC(=O)C(Cc2ccc(OC3OC(CO)C(OC4OC5COC(Cc6ccc(Br)cc6)OC5C(O)C4O)C(O)C3O)cc2)NC1=O (stereo not drawn)

Return:
1. >128 µg/mL
2. >64 µg/mL
3. 1 to 2 µg/mL

###

# Test system: Staphylococcus sp.
# assay-protocol: in vitro antibacterial evaluation, MIC by broth dilution
# Format: cell-based
# conditions-used: strain GC 4546; broth dilution, 18 hours at 35° C.
Numbered stars: 1 amine (or outer) side, 2 acyl side, 3 side chain; on linkers, the order of the positions; unused ones are H or OH. Square brackets hold non-standard residues; d marks the D form. Peptide text beside a SMILES is read from it. ξ: configuration not given here. X1 = N=C1NCC(C(O)C(N[*:1])C(=O)[*:2])N1C1OC(CO)C(O)C(O)C1O; ξEnduracididine(βξ-OH,4'ξ) = N=C1NCC(C(O)C(N)C(=O)O)N1; Tyr(3,5-Br2) = N[CH](Cc1cc(Br)c(O)c(Br)c1)C(=O)O; ξPhe(βξ-Me) = CC(c1ccccc1)C(N)C(=O)O
endpoint-name: MIC Staphylococcus haemolyticus (GC 4546)

N=C1NCC(C(O)C2NC(=O)C(CC3CCC(OC4OC(CO)C(OC5OC6COC7(OC6C(O)C5O)C5CC6CC(C5)CC7C6)C(O)C4O)CC3)NC(=O)C(CC3CCCCC3)NC(=O)CNC(=O)C(CO)NC(=O)C(C(O)C3CNC(=N)N3C3OC(CO)C(O)C(O)C3O)NC2=O)N1 (single isomer, unassigned): >64 µg/mL
CC(c1ccccc1)C1NC(=O)CNC(=O)C(CO)NC(=O)C(C(O)C2CN(c3nc4ccccc4s3)C(=N)N2C2OC(CO)C(O)C(O)C2O)NC(=O)C(C(O)C2CNC(=Nc3nc4ccccc4s3)N2)NC(=O)C(Cc2ccc(OC3OC(CO)C(OC4OC(CO)C(O)C(O)C4O)C(O)C3O)cc2)NC1=O (stereo not drawn): >64 µg/mL

Shift focus to the following entry.
Enquiry: Consider the compound CC(c1ccccc1)C1NC(=O)CNC(=O)C(CO)NC(=O)C(C(O)C2CNC(=N)N2C2OC(CO)C(O)C(O)C2O)NC(=O)C(C(O)C2CNC(=N)N2)NC(=O)C(Cc2cc(Br)c(O)c(Br)c2)NC1=O (stereo not drawn) [Example 3] (cyclo(G[ξPhe(βξ-Me)][Tyr(3,5-Br2)][ξEnduracididine(βξ-OH,4'ξ)][X1]S); configuration not given here) and give its recorded MIC Staphylococcus haemolyticus (GC 4546).
Return: >128 µg/mL

###

# Tested on: Enterococcus sp.
# assay-protocol: in vitro antibacterial evaluation, MIC by broth dilution
# Format: cell-based
# conditions-used: broth dilution, inoculum 5×10^5 CFU/mL, 18 hours at 35° C.; strain GC 6189
endpoint-name: MIC Enterococcus faecalis (GC 6189)

COc1ccc2cc(COC3C(OC4C(CO)OC(Oc5ccc(CC6NC(=O)C(C(C)c7ccccc7)NC(=O)CNC(=O)C(CO)NC(=O)C(C(O)C7CNC(=N)N7C7OC(CO)C(O)C(O)C7O)NC(=O)C(C(O)C7CNC(=N)N7)NC6=O)cc5)C(O)C4O)OC(CO)C(O)C3O)ccc2c1 (stereo not drawn) [Example 230c]: >128 µg/mL
CC(c1ccccc1)C1NC(=O)CNC(=O)C(CO)NC(=O)C(C(O)C2CNC(=N)N2C2OC(CO)C(O)C(O)C2O)NC(=O)C(C(O)C2CNC(=N)N2)NC(=O)C(Cc2ccc(OC3OC(CO)C(OC4OC5COC(c6ccccc6)OC5C(O)C4O)C(O)C3O)c(I)c2)NC1=O (stereo not drawn): >64 µg/mL

Shift focus to the following entry.
Enquiry: Please tell me the measured MIC Enterococcus faecalis (GC 6189) for COc1ccc2cc(COC3C(CO)OC(OC4C(CO)OC(Oc5ccc(CC6NC(=O)C(C(C)c7ccccc7)NC(=O)CNC(=O)C(CO)NC(=O)C(C(O)C7CNC(=N)N7C7OC(CO)C(O)C(O)C7O)NC(=O)C(C(O)C7CNC(=N)N7)NC6=O)cc5)C(O)C4O)C(O)C3O)ccc2c1 (stereo not drawn) [Example 230a] ; system: Enterococcus sp..
Return: 1 to 4 µg/mL

###

# Test system: Enterococcus sp.
# assay-protocol: in vitro antibacterial evaluation, MIC by broth dilution
# Format: cell-based
# conditions-used: broth dilution, inoculum 5×10^5 CFU/mL, 18 hours at 35° C.; strain GC 4558
endpoint-name: MIC Enterococcus avium (GC 4558) (µg/mL)
Give bare numbers, in µg/mL.

Consider the reported MIC Enterococcus avium (GC 4558) for these compounds:
CC(c1ccccc1)C1NC(=O)CNC(=O)C(CO)NC(=O)C(C(O)C2CNC(=N)N2C2OC(CO)C(O)C3OC(C)(C)OC32)NC(=O)C(C(O)C2CNC(=N)N2)NC(=O)C(Cc2ccc(OC3OC(CO)C(OC4OC(CO)C(O)C(O)C4O)C4OC(C)(C)OC34)cc2)NC1=O (stereo not shown): 128
CC(c1ccccc1)C1NC(=O)CNC(=O)C(CO)NC(=O)C(C(O)C2CNC(=N)N2C2OC(CO)C(O)C(O)C2O)NC(=O)C(C(O)C2CNC(=N)N2)NC(=O)C(Cc2ccc(OC3OC(CO)C(OC4OC5COC(c6ccc(C(=O)c7cc(I)c(I)c(I)c7)cc6)OC5C(O)C4O)C(O)C3O)cc2)NC1=O (stereo not shown): 16
CC(c1ccccc1)C1NC(=O)CNC(=O)C(CO)NC(=O)C(C(O)C2CNC(=N)N2C2OC(CO)C(O)C(O)C2O)NC(=O)C(C(O)C2CNC(=N)N2)NC(=O)C(Cc2ccc(OC3OC(CO)C(OC4OC5COC6(CCCCC6(C)C)OC5C(O)C4O)C(O)C3O)cc2)NC1=O (stereo not shown): 4
N=C1NCC(C(O)C2NC(=O)C(Cc3ccc(OC4OC(CO)C(OC5OC6COC(CCc7ccccc7)OC6C(O)C5O)C(O)C4O)cc3)NC(=O)C(CC3CCCCC3)NC(=O)CNC(=O)C(CO)NC(=O)C(C(O)C3CNC(=N)N3C3OC(CO)C(O)C(O)C3O)NC2=O)N1 (stereo not shown): 1
CC(c1ccccc1)C1NC(=O)CNC(=O)C(CO)NC(=O)C(C(O)C2CNC(=N)N2C2OC(CO)C(O)C(O)C2O)NC(=O)C(C(O)C2CNC(=N)N2)NC(=O)C(Cc2ccc(OC3OC(CO)C(OC4OC5COC(c6ccc(Oc7ccc(C(C)(C)C)cc7)cc6)OC5C(O)C4O)C(O)C3O)cc2)NC1=O (stereo not shown): 4

Record MIC Enterococcus avium (GC 4558) for all entries; do not skip any.
1. CC(c1ccccc1)C1NC(=O)CNC(=O)C(CO)NC(=O)C(C(O)C2CNC(=N)N2C2OC(CO)C(O)C(O)C2O)NC(=O)C(C(O)C2CNC(=N)N2)NC(=O)C(Cc2ccc(OC3OC(CO)C(OC4OC5COC(c6ccc(S(C)(=O)=O)cc6)OC5C(O)C4O)C(O)C3O)cc2)NC1=O (stereo not shown)
2. CC(C1CCCCC1)C1NC(=O)CNC(=O)C(CO)NC(=O)C(C(O)C2CNC(=N)N2C2OC(CO)C(O)C(O)C2O)NC(=O)C(C(O)C2CNC(=N)N2)NC(=O)C(Cc2ccc(OC3OC(CO)C(OC4OC5COC6(OC5C(O)C4O)C4CC5CC(C4)CC6C5)C(O)C3O)cc2)NC1=O (stereo not shown)

Return:
1. 64
2. 2

###

For each of the compounds below, state its MIC Enterococcus faecalis (GC 3059).
# System: Enterococcus sp.
# assay-protocol: in vitro antibacterial evaluation, MIC by broth dilution
# Format: cell-based
# conditions-used: strain GC 3059; broth dilution, 18 hours at 35° C.

CC(c1ccccc1)C1NC(=O)CNC(=O)C(CO)NC(=O)C(C(O)C2CNC(=N)N2C2OC(CO)C(O)C(O)C2O)NC(=O)C(C(O)C2CNC(=N)N2)NC(=O)C(Cc2ccc3oc(-c4ccc(C(=O)O)cc4)nc3c2)NC1=O (stereo not drawn): >128 µg/mL
CCCCCCC(=O)Nc1cc(CC2NC(=O)C(C(C)c3ccccc3)NC(=O)CNC(=O)C(CO)NC(=O)C(C(O)C3CNC(=N)N3C3OC(CO)C(O)C(O)C3O)NC(=O)C(C(O)C3CNC(=N)N3)NC2=O)ccc1O (stereo not drawn): >128 µg/mL

Enquiry: Consider the compound COc1cc(C2OCC3OC(OC4C(CO)OC(Oc5ccc(CC6NC(=O)C(C(C)c7ccccc7)NC(=O)CNC(=O)C(CO)NC(=O)C(C(O)C7CNC(=N)N7C7OC(CO)C(O)C(O)C7O)NC(=O)C(C(O)C7CNC(=N)N7)NC6=O)cc5)C(O)C4O)C(O)C(O)C3O2)cc([N+](=O)[O-])c1O (stereo not drawn) and give its recorded MIC Enterococcus faecalis (GC 3059).
Return: >64 µg/mL

The reported numbers originate from patent US6914045B2.
